- assay-procedure: Selectivity index, ratio of LC50 for human U937 cells to EC50 for intracellular amastigotes of Trypanosoma cruzi Tulahuen
- Type: toxicity, cell-based, U-937
Please go through the items and note down their selectivity ratio.
Form rule: numeric answer, no unit written next to it.

// returns reported selectivity ratio for input "O=C(N/N=C/c1ccccc1O)c1ccc2ccccc2n1"
11.6

// returns reported selectivity ratio for input O=C(Cn1ccnc1[N+](=O)[O-])NCc1ccccc1 [BENZNIDAZOLE]
17

// returns reported selectivity ratio for input "O=C(N/N=C/c1ccc(O)cc1O)c1ccc2ccccc2n1"
0.5

// returns reported selectivity ratio for input "O=C(N/N=C/c1ccc(O)cc1O)c1ccnc2ccccc12"
0.5
